Form field: GI50 (one value per entry).
Test system: SK-MEL-5
Assay text: NCI tumour cell line growth inhibition, 48 h
Calls of active or inactive are those of the source. Cut-off read from the data, not from the text of the source: active = GI50 up to about 1.1 µM and inactive = higher.

Cc1nc(N)nc(N)c1CCCCc1ccccc1 = 4.39 µM (inactive)
NC1N=C(c2ccc(Cl)cc2)C2=C(N1)c1ccccc1CC2 (stereo unspecified) = 14.7 µM (inactive)
O=C(CN1CCCCC1)Nc1ccc2sc3ccccc3c(=O)c2n1 = 15.8 µM (inactive)
Cc1nc(N)nc(N)c1N1CCN(Cc2ccccc2)CC1 = > 37.8 µM (inactive)

Lookup: Query: GI50; subject: O=[N+]([O-])/C=C/COCc1cc2c(cc1Br)OCO2
Found: 20.2 µM (inactive)

Lookup: Also O=c1[nH]cnc2[nH]nnc12 ?
Found: 41.5 µM (inactive)

Lookup: Proceed to OC1C2CCCCN2C[C@@H](O)[C@H]1O (stereo partly specified)
Found: > 100 µM (inactive)
